Where do the numbers come from? From patent US10011609B2.

experiment: Pharmacokinetics in rats; details: rat, in vivo, po 3 mg/Kg, read-out: T1/2, po (converted)
QUANTITY NAME: half-life (h)
Numbers only here, please. The scale is h.

CC#C[C@@H](CC(=O)[O][Ca][O]C(=O)C[C@H](C#CC)c1ccc(OCc2cccc(CN3CCc4nc(Cl)sc4C3)c2)cc1)c1ccc(OCc2cccc(CN3CCc4nc(Cl)sc4C3)c2)cc1 [Compound 60]: 5.45
CC#C[C@@H](CC(=O)[O][Ca][O]C(=O)C[C@H](C#CC)c1ccc(OCc2cccc(CN3CCc4sc(C)cc4C3)c2)cc1)c1ccc(OCc2cccc(CN3CCc4sc(C)cc4C3)c2)cc1 [Compound 16]: 1.77

# input for lookup
Task item: Given CC#C[C@@H](CC(=O)[O][Ca][O]C(=O)C[C@H](C#CC)c1ccc(OCc2cccc(CN3CCc4oc(C5CC5)nc4C3)c2)cc1)c1ccc(OCc2cccc(CN3CCc4oc(C5CC5)nc4C3)c2)cc1 [Compound 64] , respond with its half-life.
Reply: 4.51

---

A collection of molecules and their measured MRT
experiment: Pharmacokinetics in rats; conditions: rat, in vivo, iv 1 mg/Kg, read-out: Mean residence time
Numbers only here, please. The scale is h.

Below, 2 molecules whose answers are already recorded.
CC#C[C@@H](CC(=O)[O][Ca][O]C(=O)C[C@H](C#CC)c1ccc(OCc2cccc(CN3CCc4sc(C)cc4C3)c2)cc1)c1ccc(OCc2cccc(CN3CCc4sc(C)cc4C3)c2)cc1: 1.09
CC#C[C@@H](CC(=O)[O][Ca][O]C(=O)C[C@H](C#CC)c1ccc(OCc2cccc(CN3CCc4nc(Cl)sc4C3)c2)cc1)c1ccc(OCc2cccc(CN3CCc4nc(Cl)sc4C3)c2)cc1: 6.28

# input for lookup
Task item: Given CC#C[C@@H](CC(=O)[O][Ca][O]C(=O)C[C@H](C#CC)c1ccc(OCc2cccc(CN3CCc4oc(C5CC5)nc4C3)c2)cc1)c1ccc(OCc2cccc(CN3CCc4oc(C5CC5)nc4C3)c2)cc1 , respond with its MRT.
Reply: 10.1

---

test: Pharmacokinetics in rats; conditions: rat, in vivo, po 3 mg/Kg, read-out: Mean residence time
A collection of compounds and their measured MRT
Numbers only here, please. The scale is h.

Below, 2 compounds whose answers are already recorded.
CC#C[C@@H](CC(=O)[O][Ca][O]C(=O)C[C@H](C#CC)c1ccc(OCc2cccc(CN3CCc4sc(C)cc4C3)c2)cc1)c1ccc(OCc2cccc(CN3CCc4sc(C)cc4C3)c2)cc1 [Compound 16]: 2.19
CC#C[C@@H](CC(=O)[O][Ca][O]C(=O)C[C@H](C#CC)c1ccc(OCc2cccc(CN3CCc4nc(Cl)sc4C3)c2)cc1)c1ccc(OCc2cccc(CN3CCc4nc(Cl)sc4C3)c2)cc1 [Compound 60]: 5.74

# input for lookup
Task item: Given CC#C[C@@H](CC(=O)[O][Ca][O]C(=O)C[C@H](C#CC)c1ccc(OCc2cccc(CN3CCc4oc(C5CC5)nc4C3)c2)cc1)c1ccc(OCc2cccc(CN3CCc4oc(C5CC5)nc4C3)c2)cc1 [Compound 64] , respond with its MRT.
Reply: 6.59

---

A collection of compounds and their measured EC50
target: GPR40 (Homo sapiens); construct: host or cells: HEK293 (ChemiBrite cell line); assay: Promoter-luciferase assay to measure GPR40 activation (HEK293 cells stably transfected with GPR40 cDNA); assay type: cell-based; details: HEK293 cells stably transfected with GPR40, 5xSRE-luciferase; read-out: EC50 in Luciferase assay
Sequence (O14842 whole entry, species assumed): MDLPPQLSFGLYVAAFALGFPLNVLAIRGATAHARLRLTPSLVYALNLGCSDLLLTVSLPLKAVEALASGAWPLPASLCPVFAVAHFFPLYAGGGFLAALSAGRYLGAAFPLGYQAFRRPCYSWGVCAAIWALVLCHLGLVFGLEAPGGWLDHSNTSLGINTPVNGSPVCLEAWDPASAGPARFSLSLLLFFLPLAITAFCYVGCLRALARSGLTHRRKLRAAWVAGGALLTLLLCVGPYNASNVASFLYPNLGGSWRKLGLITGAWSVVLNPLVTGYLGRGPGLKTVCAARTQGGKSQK
Numbers only here, please. The scale is nM.

CC#C[C@@H](CC(=O)O)c1ccc(OCc2cccc(CN3CCc4sc(C#N)cc4C3)c2)cc1: 7.3
CC#C[C@@H](CC(=O)O)c1ccc(OCc2cccc(CN3CCc4nc(Br)sc4C3)c2)cc1: 4.8
CC#C[C@@H](CC(=O)O)c1ccc(OCc2cccc(CN3CCCc4ccccc43)c2)cc1: 0.8
CC#C[C@@H](CC(=O)O)c1ccc(OCc2cccc(CN3CCc4sc(C(=O)NC)cc4C3)c2)cc1: 6

Task item: Given CC#C[C@H](CC(=O)O)c1ccc(OCc2cccc(CN3CCc4sc(C)cc4C3)c2)cc1 , respond with its EC50.
Reply: 56.5

Task item: Given CC#C[C@@H](CC(=O)O)c1ccc(OCc2cccc(CN3CCc4nc(Cl)sc4C3)c2)cc1 , respond with its EC50.
Reply: 9.7

Task item: Given CC#C[C@@H](CC(=O)O)c1ccc(OCc2cccc(CN3CCc4sc(CC)cc4C3)c2)cc1 , respond with its EC50.
Reply: 0.4

Task item: Given CC#C[C@@H](CC(=O)O)c1ccc(OCc2cccc(CN3CCc4sc(C(C)=O)cc4C3)c2)cc1 , respond with its EC50.
Reply: 2.3
